Biological target: human TLR8 (Homo sapiens)
Sequence (Q9NR97 27-1041): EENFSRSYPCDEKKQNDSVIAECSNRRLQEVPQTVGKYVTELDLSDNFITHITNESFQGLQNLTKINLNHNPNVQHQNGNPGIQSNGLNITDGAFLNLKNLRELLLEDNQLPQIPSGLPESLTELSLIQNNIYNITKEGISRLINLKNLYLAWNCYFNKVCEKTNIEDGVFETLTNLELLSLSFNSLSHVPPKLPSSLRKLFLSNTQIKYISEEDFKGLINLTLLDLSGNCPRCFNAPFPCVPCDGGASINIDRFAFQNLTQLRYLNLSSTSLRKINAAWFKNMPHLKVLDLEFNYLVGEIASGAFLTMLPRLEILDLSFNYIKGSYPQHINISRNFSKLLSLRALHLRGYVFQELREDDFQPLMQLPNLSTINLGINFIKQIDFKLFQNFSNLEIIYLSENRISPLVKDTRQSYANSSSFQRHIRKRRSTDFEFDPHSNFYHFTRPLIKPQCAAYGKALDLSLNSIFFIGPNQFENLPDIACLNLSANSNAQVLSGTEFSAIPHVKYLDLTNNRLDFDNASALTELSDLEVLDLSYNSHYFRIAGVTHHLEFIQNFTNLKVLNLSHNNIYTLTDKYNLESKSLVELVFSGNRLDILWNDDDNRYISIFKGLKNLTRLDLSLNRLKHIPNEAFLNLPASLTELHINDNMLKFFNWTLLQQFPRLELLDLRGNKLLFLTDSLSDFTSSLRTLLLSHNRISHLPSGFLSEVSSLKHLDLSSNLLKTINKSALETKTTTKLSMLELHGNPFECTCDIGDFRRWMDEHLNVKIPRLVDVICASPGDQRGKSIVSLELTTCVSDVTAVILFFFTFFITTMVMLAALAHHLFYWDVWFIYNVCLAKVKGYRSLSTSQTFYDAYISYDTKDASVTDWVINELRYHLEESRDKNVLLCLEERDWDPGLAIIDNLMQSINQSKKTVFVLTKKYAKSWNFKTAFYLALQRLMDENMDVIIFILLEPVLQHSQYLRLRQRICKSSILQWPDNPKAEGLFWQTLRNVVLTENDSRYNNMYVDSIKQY
Assay: TLR8 inhibition reporter assay (HEK-Blue cells, SEAP reporter, R848 stimulation)
Conditions: HEK-Blue cells overexpressing human TLR8, SEAP reporter, R848 15.9 μM
From the text: TLR7/8/9 Inhibition Reporter Assays HEK-Blue™-cells (Invivogen) overexpressing human TLR7, TLR8 or TLR9 receptors were used for screening inhibitors of these receptors using an inducible SEAP (secreted embryonic alkaline phosphatase) reporter gene under the control of the IFN-β minimal promoter fused to five NF-κB and AP-1-binding sites. […]
valueType: IC50

Previously resolved entries follow.
Cc1c(-c2[nH]c3ccc(C4CCN(C5CCOCC5)CC4)cc3c2C(C)C)c2cccnc2n1C [Example 691] : < 0.1 µM
Cc1cc2nccn2cc1-c1[nH]c2ccc(C3CCN(C4CCN(C(C)C)CC4)CC3)cc2c1C(C)C [Example 841] : < 0.1 µM
Cc1cc(-c2[nH]c3ccc(C4CCN(C(=O)C5CC(=O)N(C)C5)CC4)cc3c2C(C)C)c2ccccc2n1 (stereo not shown) [Example 638] : 0.1 to 1 µM
CNCCN1CCC(c2ccc3[nH]c(-c4ccc5nc(C)cn5c4)c(C(C)C)c3c2)CC1 [Example 676] : 0.1 to 1 µM
CC(C)c1c(-c2ccn3nncc3c2)[nH]c2ccc(C3CCN(CC(=O)N(C)C)CC3)cc12 [Example 302] : 0.1 to 1 µM
Cc1cn2cc(-c3[nH]c4ccc(C5CCN(CC(=O)N(C)C)CC5)cc4c3CC(F)F)ccc2n1 [Example 416] : > 3.13 µM
COc1cc(-c2[nH]c3ccc(C4CCN(C(=O)CN(C)C)CC4)cc3c2C(C)C)nn2ncnc12 [Example 460] : < 0.1 µM
CNC(=O)CN1CCC(c2ccc3[nH]c(-c4cc(OC)n5ccnc5c4)c(C(C)C)c3c2)CC1 [Example 356] : 0.1 to 1 µM

Please find the next compound below.
[in] Fill in the recorded IC50 for this compound, with human TLR8 (Homo sapiens) as test system: CC(C)c1c(-c2ccn3nncc3c2)[nH]c2ccc(C3CCN(C4CCOCC4)CC3)cc12 [Example 696]
[out] 0.1 to 1 µM
